Just for reference, patent US10731187B2 is where these values come from.

Assay: Solubility of oAB in fermentation broth slurry
Format: physicochemical
Settings: fermentation broth of Corynebacterium glutamicum; room temperature, pH 4.5, fermentation broth
assay.endpoint: solubility

Prompt line: Tell me the measured solubility of Nc1ccccc1C(=O)O [oAB, 2-aminobenzoic acid] , please.
Response line: ~4500 µg/mL
